# credit: the supplement of paper PMC7366291

Tested on: Danio rerio Tg(wt1b:EGFP) embryo, pronephros
Assay: fraction of imaged embryos annotated as normal kidney; higher = less nephrotoxic; extreme values may be limits of the assay
Details: 25 µM; exposure: 24-48 hpf
Where a name gives a salt, the structure may show the parent alone.
Measured metric: fraction of imaged embryos annotated as normal kidney
The answer should be written as a number, with no unit following it.

Using the record for COc1cc(NC(C)CCCN)c2ncccc2c1 (stereo not drawn) [Primaquine diphosphate] , report its fraction of imaged embryos annotated as normal kidney.
1

Could you tell me which fraction of imaged embryos annotated as normal kidney is on file for `C=CC1=C(C(=O)O)N2C(=O)[C@@H](NC(=O)/C(=N\O)c3csc(N)n3)[C@H]2SC1` ?
1

Given `CCOc1ccc2c(c1)C(C)=CC(C)(C)N2` , state its recorded fraction of imaged embryos annotated as normal kidney.
0.75

Could you share which fraction of imaged embryos annotated as normal kidney value was measured for Cc1cc(N)c2ccccc2[n+]1CCCCCCCCCC[n+]1c(C)cc(N)c2ccccc21 [Dequalinium dichloride] ?
0.75

Sample Nc1nc2[nH]cc(CCc3ccc(C(=O)N[C@@H](CCC(=O)O)C(=O)O)cc3)c2c(=O)[nH]1 [Pemetrexed disodium] — what was its fraction of imaged embryos annotated as normal kidney?
0.833

State the recorded fraction of imaged embryos annotated as normal kidney for this entry: CN(C)CCCN1c2ccccc2Sc2ccc(Cl)cc21 [Chlorpromazine hydrochloride]
0.833

Param item = C#C[C@]1(OC(C)=O)CC[C@H]2[C@@H]3CCC4=C[C@@H](OC(C)=O)CC[C@@H]4[C@H]3CC[C@@]21C [Ethynodiol diacetate] ; retrieve measured fraction of imaged embryos annotated as normal kidney.
0.75

What value of fraction of imaged embryos annotated as normal kidney has been reported for the following molecule? `CCCCC1C(=O)N(c2ccccc2)N(c2ccccc2)C1=O`
0

I would be grateful if you could share the reported fraction of imaged embryos annotated as normal kidney for Cc1c(O)c(=O)n(-c2ccccc2)n1C [Antipyrine, 4-hydroxy] .
0.583

Given `NCCCCCC(=O)O` , state its recorded fraction of imaged embryos annotated as normal kidney.
1

Item Clc1ccc(COC(Cn2ccnc2)c2ccc(Cl)cc2Cl)c(Cl)c1 (stereo not drawn) has what recorded fraction of imaged embryos annotated as normal kidney?
0.0909

Bench note: what fraction of imaged embryos annotated as normal kidney did NCCc1cc[nH]n1 [Betazole hydrochloride] show?
0.917

Name the reported fraction of imaged embryos annotated as normal kidney value associated with the molecule C[C@H]1O[C@H](O[C@H]2[C@H](O)[C@@H](O)[C@@H](O[C@H]3[C@H](O)[C@@H](O)C(O)O[C@@H]3CO)O[C@@H]2CO)[C@H](O)[C@@H](O)[C@@H]1N[C@H]1C=C(CO)[C@@H](O)[C@H](O)[C@H]1O (stereo partly drawn)
0.833

Data request, read-out fraction of imaged embryos annotated as normal kidney, for `Cc1cc(NC(=O)C2=C(O)c3ccccc3S(=O)(=O)N2C)no1`
0.917

Given the molecule CCOC(=O)OC(C)OC(=O)[C@@H]1N2C(=O)[C@@H](NC(=O)[C@H](N)c3ccccc3)[C@H]2SC1(C)C (stereo partly drawn) [Bacampicillin hydrochloride] , what is its reported fraction of imaged embryos annotated as normal kidney?
0.917

Item `CS(=O)(=O)c1ccc([C@@H](O)[C@@H](CO)NC(=O)C(Cl)Cl)cc1` has what recorded fraction of imaged embryos annotated as normal kidney?
1

So what's the measured fraction of imaged embryos annotated as normal kidney for this one? `COc1ccc2[nH]cc(CCNC(C)=O)c2c1`
0.917

Bench note: what fraction of imaged embryos annotated as normal kidney did Cc1cccc(N(C)C(=S)Oc2ccc3ccccc3c2)c1 [Tolnaftate] show?
0.75

What measured fraction of imaged embryos annotated as normal kidney goes with COc1cccc2c1C(=O)c1c(O)c3c(c(O)c1C2=O)C[C@@](O)(C(C)=O)C[C@@H]3O[C@H]1C[C@H](N)[C@H](O)[C@H](C)O1 [Daunorubicin hydrochloride] ?
0.917

Give the measured fraction of imaged embryos annotated as normal kidney of O=C(NCC1CCCCN1)c1cc(OCC(F)(F)F)ccc1OCC(F)(F)F (stereo not drawn) [Flecainide acetate] .
0.75

Given the entry CC(CCc1ccccc1)NCC(O)c1ccc(O)c(C(N)=O)c1 (stereo not drawn) [Labetalol hydrochloride] , report its measured fraction of imaged embryos annotated as normal kidney.
0.917

Need fraction of imaged embryos annotated as normal kidney of COCCCOc1ccnc(C[S+]([O-])c2nc3ccccc3[nH]2)c1C (stereo not drawn) [Rabeprazole Sodium salt] , thanks.
0.75

fraction of imaged embryos annotated as normal kidney lookup needed for Cc1ccccc1C(OCCN(C)C)c1ccccc1 (stereo not drawn) [Orphenadrine hydrochloride] , thanks.
0.833

What does the data say about its fraction of imaged embryos annotated as normal kidney? Entry: CN(Cc1cc(Br)cc(Br)c1N)C1CCCCC1 [Bromhexine hydrochloride]
1

Consider the molecule `C[C@]12C=CC(=O)C=C1CC[C@@H]1[C@@H]2C(=O)C[C@@]2(C)[C@H]1CC[C@]2(O)C(=O)CO` and give its measured fraction of imaged embryos annotated as normal kidney.
0.833

fraction of imaged embryos annotated as normal kidney lookup needed for Brc1c(NC2=NCCN2)ccc2nccnc12 [Brimonidine L-Tartrate] , thanks.
1

Name the recorded fraction of imaged embryos annotated as normal kidney for `CN(C)CCOc1ccc(/C(=C(/CCCl)c2ccccc2)c2ccccc2)cc1` .
0.917

Using the record for O=C(NCCNCC(O)COc1ccc(O)cc1)N1CCOCC1 (stereo not drawn) [Xamoterol hemifumarate] , report its fraction of imaged embryos annotated as normal kidney.
1

Data request, read-out fraction of imaged embryos annotated as normal kidney, for `Cc1c(N(C)CS(=O)(=O)O)c(=O)n(-c2ccccc2)n1C`
0.917

Requested read-out: fraction of imaged embryos annotated as normal kidney. Entry: `O=C(O)c1ccccc1OP(=O)(O)O`
0.833

# query: fraction of imaged embryos annotated as normal kidney of entry CN(C)CCC=C1c2ccccc2COc2ccccc21 [Doxepin hydrochloride]
0.917

Any idea what fraction of imaged embryos annotated as normal kidney was measured for COC(=O)C1=C(C#N)NC(C)=C(C(=O)OC(C)C)C1c1cccc([N+](=O)[O-])c1 (stereo not drawn) ?
0.167

What value of measured fraction of imaged embryos annotated as normal kidney is listed for Cc1ccc(S(=O)(=O)NC(=O)NN2CC3CCCC3C2)cc1 (stereo not drawn) [Gliclazide] ?
0.917

###

Test system: Danio rerio Tg(wt1b:EGFP) embryo, pronephros
Assay: glomerular width (mean of left and right), fold change vs DMSO control; higher = wider glomerulus
Conditions: 25 µM; exposure: 24-48 hpf
Counter-ions that a name gives are not always drawn.
Measured metric: glomerular width
Reply with just the number.

GET /values?readout=glomerular width&item= `CCCc1nn(C)c2c(=O)[nH]c(-c3cc(S(=O)(=O)N4CCN(C)CC4)ccc3OCC)nc12`
0.928

Fill blank: measured glomerular width of the compound `C/C(=C(\CCOP(=O)(O)O)SC(=O)c1ccccc1)N(C=O)Cc1cnc(C)nc1N` is ____.
0.995

For the compound shown here, Cc1ccc(/C(=C\CN2CCCC2)c2ccccn2)cc1 [Triprolidine hydrochloride] , give the reported glomerular width.
1.04

What value of glomerular width has been reported for the following compound? `CCN(CC)C(=S)SSC(=S)N(CC)CC`
0.458

Recorded glomerular width for CC(C)(CO)C(O)C(=O)NCCCO (centres undefined) , please?
1

Which glomerular width is reported for this compound? CCC1(c2ccccc2)NC(=O)N(C)C1=O (centres undefined)
0.923

Consider the compound CN(Cc1ccc(C(C)(C)C)cc1)Cc1cccc2ccccc12 [Butenafine Hydrochloride] and give its measured glomerular width.
0.982

Entry under review: c1ccc([C@H]2CN3CCSC3=N2)cc1 [Levamisole hydrochloride] . Reported glomerular width?
1.08

Entry under review: CNNCc1ccc(C(=O)NC(C)C)cc1 [Procarbazine hydrochloride] . Reported glomerular width?
0.973

###

Test system: Danio rerio Tg(wt1b:EGFP) embryo, pronephros
Assay: glomerular width (mean of left and right), fold change vs DMSO control; higher = wider glomerulus
Conditions: 25 µM; exposure: 24-48 hpf
Counter-ions that a name gives are not always drawn.
Label Fulfilled when glomerular width is at or above 1; anything below gets Not fulfilled.

Does glomerular width meet or surpass 1 for CCOC(=O)[C@H](CCc1ccccc1)N[C@H]1CCc2ccccc2N(CC(=O)O)C1=O [Benazepril hydrochloride] ?
Fulfilled

I'd appreciate it if you could say whether `CC1(C)S[C@@H]2[C@H](NC(=O)Cc3ccccc3)C(=O)N2[C@H]1C(=O)O` has glomerular width at least equal to 1.
Fulfilled

Record `CC(C)c1nc(CN(C)C(=O)N[C@H](C(=O)N[C@@H](Cc2ccccc2)C[C@H](O)[C@H](Cc2ccccc2)NC(=O)OCc2cncs2)C(C)C)cs1` ; criterion: glomerular width no lower than 1. Met?
Not fulfilled

###

Tested on: Danio rerio Tg(wt1b:EGFP) embryo, pronephros
Experiment: glomerular width (mean of left and right), fold change vs DMSO control; higher = wider glomerulus
Settings: 25 µM; exposure: 24-48 hpf
Counter-ions that a name gives are not always drawn.
Measured metric: glomerular width
# print the numeric value only

For `Nc1nc(O)c2ncn(CCC(CO)CO)c2n1` , what is its reported glomerular width?
1.01

Need glomerular width, item Cc1scc2c1N(C(=O)CN1CCN(C)CC1)c1ccccc1NC2=O [Telenzepine dihydrochloride]
0.937

I have this molecule here, CC(CN(C)C)C(C)(O)Cc1ccc(Cl)cc1 (stereo not given) [Clobutinol hydrochloride] , and I need its recorded glomerular width.
0.945

// returns reported glomerular width for input CCOc1cc(CC(=O)N[C@@H](CC(C)C)c2ccccc2N2CCCCC2)ccc1C(=O)O [Repaglinide]
0.943

So what's the measured glomerular width for this one? CN(C)CCC(c1ccc(Cl)cc1)c1ccccn1 (stereo not given) [Chlorpheniramine maleate]
1.04
